# experiment_description: Solubility in water
# Assay type: physicochemical
# recorded_conditions: 26 °C, room temperature (about 25 to 27° C.)
outcome_measure: solubility

Request the reported solubility associated with CN(C)CC(c1ccc(O)cc1)C1(O)CCCCC1.O=CO (stereo not shown) [ODV formate, O-desmethylvenlafaxine formate] > 425 mg/mL
